Recorded values, source patent US20260200901A1.

target: NLRP3 (Homo sapiens); assay: THP-1 cells pyroptosis assay
Sequence (Q96P20 whole entry): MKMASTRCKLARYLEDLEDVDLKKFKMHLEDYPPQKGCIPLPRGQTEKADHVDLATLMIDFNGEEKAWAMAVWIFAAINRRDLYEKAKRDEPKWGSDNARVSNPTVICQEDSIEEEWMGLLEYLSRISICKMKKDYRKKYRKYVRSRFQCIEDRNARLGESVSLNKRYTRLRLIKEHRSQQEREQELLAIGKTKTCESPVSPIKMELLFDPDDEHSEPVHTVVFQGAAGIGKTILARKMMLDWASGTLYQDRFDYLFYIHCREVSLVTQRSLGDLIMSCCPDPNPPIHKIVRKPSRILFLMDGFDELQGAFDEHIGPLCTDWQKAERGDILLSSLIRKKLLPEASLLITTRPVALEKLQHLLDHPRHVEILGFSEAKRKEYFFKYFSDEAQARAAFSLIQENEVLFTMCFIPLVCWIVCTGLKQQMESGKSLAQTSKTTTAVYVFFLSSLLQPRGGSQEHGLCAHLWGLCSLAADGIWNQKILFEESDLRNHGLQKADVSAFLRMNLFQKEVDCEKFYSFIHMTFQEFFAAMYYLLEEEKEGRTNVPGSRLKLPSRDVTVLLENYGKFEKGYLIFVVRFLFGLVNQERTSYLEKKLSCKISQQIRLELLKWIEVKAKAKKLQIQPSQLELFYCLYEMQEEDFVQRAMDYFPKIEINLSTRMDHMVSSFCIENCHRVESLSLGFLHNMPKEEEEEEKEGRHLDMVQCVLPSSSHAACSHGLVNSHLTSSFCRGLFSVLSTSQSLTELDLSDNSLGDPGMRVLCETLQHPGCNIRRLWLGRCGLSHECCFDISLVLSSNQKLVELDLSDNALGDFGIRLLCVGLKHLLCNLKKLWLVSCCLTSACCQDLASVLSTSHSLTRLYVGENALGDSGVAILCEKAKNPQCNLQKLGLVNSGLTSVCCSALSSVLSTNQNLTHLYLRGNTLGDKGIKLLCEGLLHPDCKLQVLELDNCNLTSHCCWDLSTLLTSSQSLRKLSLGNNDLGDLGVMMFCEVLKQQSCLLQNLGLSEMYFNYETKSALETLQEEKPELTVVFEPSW
Measured IC50 values are reported for all entries that follow.
Entry rule: numbers only, all in nM.

The cases that follow already have their IC50 on record.
COMPOUND: Cc1nc(N[C@@H]2CCCN(CCCC#N)C2)nnc1-c1ccc2c(c1O)CCO2 [Example 19]
U: nM
REPORTED VALUE: 20

COMPOUND: Cc1nc(N[C@@H]2CCCN(CCn3cccn3)C2)nnc1-c1ccc2c(c1O)CCO2 [Example 17]
U: nM
REPORTED VALUE: 35

Next item in the queue.
The compound listed as Cc1nc(N[C@@H]2CCCN(CCCC(=O)N3CCC(O)C3)C2)nnc1-c1ccc2c(c1O)CCO2 (mixture of isomers) [Example 15, formic acid] has a reported IC50 of 58
